Test system: rodent lifetime carcinogenesis bioassay, tumor incidence TD50
test-method-notes: carcinogenic potency in animals, long-term in vivo studies, CPDB compilation (AID 1745844)
experimental-conditions: rat; strain Charles River CD (Sprague-Dawley); females; in feed; site: kidney; lesion: cortical adenoma; dosed 104 weeks; study length 104 weeks

- test-smiles: "O=P(OC(CCl)CCl)(OC(CCl)CCl)OC(CCl)CCl"
  TD50: "68.6 mg/kg/day"

---

Test system: rodent lifetime carcinogenesis bioassay, tumor incidence TD50
test-method-notes: carcinogenic potency in animals, long-term in vivo studies, CPDB compilation (AID 1745844)
experimental-conditions: rat; strain Sprague-Dawley; females; in feed; site: any site (literature study); lesion: several types; types named in the paper; dosed 46 weeks; study length 66 weeks
The source made the active and inactive calls. The rule behind the calls is not given here.

- compound: "NNc1nc(-c2ccccc2)cs1"
  TD50: "311 mg/kg/day (inactive)"
- compound: "N/C(=N\\O)c1ccc([N+](=O)[O-])o1"
  TD50: "42 mg/kg/day (inactive)"
- compound: "O=C1NC(c2ccc([N+](=O)[O-])s2)Nc2ccccc21 (stereo unspecified)"
  TD50: "1.53 mg/kg/day"
- compound: "CN(C)/C=N/c1nnc(/C=C/c2ccc([N+](=O)[O-])o2)o1"
  TD50: "20.6 mg/kg/day"
- compound: "Cc1ncc([N+](=O)[O-])n1C"
  TD50: "17 mg/kg/day"
- compound: "O=[N+]([O-])c1ccc(-c2nc(N3CCOCC3)c3ccccc3n2)s1"
  TD50: "5.03 mg/kg/day"

---

Tested on: rodent lifetime carcinogenesis bioassay, tumor incidence TD50
test-method-notes: carcinogenic potency in animals, long-term in vivo studies, CPDB compilation (AID 1745844)
experimental-conditions: mouse; strain B6C3F1; males; in feed; site: lung; lesion: adenoma; dosed 78 weeks; study length 78 weeks

- test-smiles: "CN1CCCC1=O"
  TD50 [mg/kg/day]: 4080

---

Test system: rodent lifetime carcinogenesis bioassay, tumor incidence TD50
test-method-notes: carcinogenic potency in animals, long-term in vivo studies, CPDB compilation (AID 1745844)
experimental-conditions: hamster; strain Syrian Golden; males; in drinking water; site: pancreas; lesion: angiosarcoma; dosed 71 weeks; study length 71 weeks

- test-smiles: "CNNC"
  test-system: "rodent lifetime carcinogenesis bioassay, tumor incidence TD50"
  TD50: "18.6 mg/kg/day"

---

Tested on: rodent lifetime carcinogenesis bioassay, tumor incidence TD50
test-method-notes: carcinogenic potency in animals, long-term in vivo studies, CPDB compilation (AID 1745844)
experimental-conditions: mouse; strain BALB/cStCrlfC3Hf/Nctr; females; in feed; site: vagina; lesion: squamous-cell carcinoma; dosed 132 weeks; study length 133 weeks

- test-smiles: "CC/C(=C(/CC)c1ccc(O)cc1)c1ccc(O)cc1"
  TD50, mg/kg/day: 1.31

---

System: rodent lifetime carcinogenesis bioassay, tumor incidence TD50
test-method-notes: carcinogenic potency in animals, long-term in vivo studies, CPDB compilation (AID 1745844)
experimental-conditions: rat; strain Fischer 344; females; in drinking water; site: colon + rectum; lesion: adenocarcinoma + adenomatous polyp; dosed 60 weeks; study length 60 weeks

- test-smiles: "Cc1cc(-c2ccc(N)c(C)c2)ccc1N"
  test-system: "rodent lifetime carcinogenesis bioassay, tumor incidence TD50"
  TD50: "6.65 mg/kg/day"

---

System: rodent lifetime carcinogenesis bioassay, tumor incidence TD50
test-method-notes: carcinogenic potency in animals, long-term in vivo studies, CPDB compilation (AID 1745844)
experimental-conditions: mouse; strain B6C3F1; males; in feed; site: any site (literature study); lesion: several types; types named in the paper; dosed 80 weeks; study length 90 weeks
Active and inactive are the calls of the source. How the calls were made is not given here.
Entries and their TD50 values follow.

- molecule: "ClC1=C(Cl)C2(Cl)C3C(Cl)C(Cl)CC3C1(Cl)C2(Cl)Cl (stereo not drawn)"
  TD50: "2.31 mg/kg/day"
- molecule: "ClC1=C(Cl)[C@]2(Cl)[C@H]3[C@H]([C@@H]4C=C[C@H]3C4)[C@@]1(Cl)C2(Cl)Cl"
  TD50: "1.01 mg/kg/day"
- molecule: "ClC1=C(Cl)[C@]2(Cl)[C@@H]3[C@H]4C[C@H]([C@@H]5O[C@H]45)[C@@H]3[C@@]1(Cl)C2(Cl)Cl"
  TD50: "0.546 mg/kg/day (inactive)"
